# Tested On: T1, human CXCR1 (human, UniProt P25024 1-350)
# T1 sequence: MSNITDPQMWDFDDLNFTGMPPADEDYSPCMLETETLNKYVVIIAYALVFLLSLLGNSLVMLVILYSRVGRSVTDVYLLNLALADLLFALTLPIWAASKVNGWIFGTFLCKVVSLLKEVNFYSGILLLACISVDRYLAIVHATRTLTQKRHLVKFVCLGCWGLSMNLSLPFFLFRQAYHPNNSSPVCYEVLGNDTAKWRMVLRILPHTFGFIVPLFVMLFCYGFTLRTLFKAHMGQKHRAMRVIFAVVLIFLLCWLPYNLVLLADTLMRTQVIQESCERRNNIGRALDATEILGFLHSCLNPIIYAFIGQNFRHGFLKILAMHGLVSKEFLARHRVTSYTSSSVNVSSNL
# Test Name: flow cytometry, transfected Expi293F cells

Binder | binding result
BKO-1H3 (antibody, human IgG4 S228P, lambda, V domains shown, recombinant human IgG4 S228P, lambda) VH: EVQLLESGGGLVQPGGSLRLSCAASGFTLSRSSTSWVRQTPGKGLEWVSAISGSGGRTYYADSVKGRFTISRDNSKNTLYLQMNSLRAEDTAVYYCAIQLGYWGQGILVTVSS VL: QSALTQPASVSGSPGQSITISCTGTSSDVGGYNYVSWYQQHPGKAPKLMIYDVSNRPSGVSNRFSGSKSGNTASLTISGLQAEDEADYYCSSYTSSSTWVFGGGTKLTVLG | no binding
BKO-5E8 (antibody, human IgG4 S228P, lambda, V domains shown, recombinant human IgG4 S228P, lambda) VH: EVQLLESGGGLVQPGGSLRLSCAASGFTFSSYAMSWVRQAPGRGLEWVSAIRGSGAGTYYADSMKGRFTISRDNSKDTLYLLMNSLRAEDTAVYYCSKLEAVSGTGKYFQHWGQGTLVTVSS VL: SYELTQPPSVSVSPGQTANITCSGDTLGDKFACWYQQKPGQSPVLVIYQDTKRPSGIPERFSGSKSGITATLTISGTQAMDEADFYCQAWNSRGVVFGGGTRLTVLG | no binding
BKO-8B6 (antibody, human IgG4 S228P, lambda, V domains shown, recombinant human IgG4 S228P, lambda) VH: EVQLLESGGGLVQPGGSLRLSCAASGFTFSSNAMSWVRQAPGKGLEWVSAISNSGRSTYYADSVKGRFTISRDSSKNTLYLLMNSLRAEDSAVYYCAIKLGYWGQGSLVTVSS VL: QSALTQPPSASGSPGQSVTISCTGTSSDVGGYNYVSWYQQHPGKAPKLMMYEVSKRPSGVPDRFSGSKSGNTASLTVSGLQAEDEADYYCSSYAGSDNFGVFGGGTRLTVLG | no binding
BKO-7H8_b (antibody, human IgG4 S228P, lambda, V domains shown, recombinant human IgG4 S228P, lambda) VH: EVQLLESGGGLVQPGGSLRLSCAASGYTFTSSTMSWVRQAPGKGLEWVTAISGRGGRTYYADSVKGRFTISRDNSKNTLYLQMNSLRAEDTAVYYCAIQLGNWGQGILVTVSS VL: QSALTQPPSASGSPGQSVTISCTGTSSDIGGYNYVSWYQQHPGKAPKLVIYEVNMRPSGVPARFSGSKSGNTASLTVSGLQAEDEADYYCSSYAGNDNFGVFGGGTKLSVLG | no binding
